- Test system: Roseburia intestinalis
- assay notes: growth AUC relative to DMSO control (median of replicates) (fraction); higher = more growth (less inhibition), active = hit call of the paper
- test context: 20 µM; 24 h
Mark rule not met for growth AUC values under 1, and rule met for everything at or above.

# compound, class assignment
measured = [
    ("CCN(CC)C(=O)c1cccc(C)c1", "rule not met"),
    ("Oc1ccccc1", "rule met"),
    ("CP(=O)(O)CCC(=O)O", "rule met"),
    ("C=CCc1ccc(O)c(OC)c1", "rule not met"),
    ("CC(C)CNC(=O)N1CCNC1=O", "rule met"),
    ("C/C=C/C(=O)Oc1c(C(C)CCCCCC)cc([N+](=O)[O-])cc1[N+](=O)[O-] (mixture of isomers)", "rule not met"),
    ("CCNc1nc(NC(C)CC)nc(OC)n1 (configuration not stated)", "rule met"),
]

---

Listed below: growth AUC values for each entry.
- System: Bacteroides dorei
- assay notes: growth AUC relative to DMSO control (median of replicates) (fraction); higher = more growth (less inhibition), active = hit call of the paper
- test context: 20 µM; 24 h

# compound, growth AUC
data = [
    ("O=C(Oc1ccccc1)n1c(C(F)(F)F)nc2cc(Cl)c(Cl)cc21", 0.236),
    ("CCCCN(C)C(=O)Nc1ccc(Cl)c(Cl)c1", 0.97),
    ("CCc1cccc(C)c1N(C(=O)C(=O)O)[C@@H](C)C(=O)O", 0.963),
    ("O=c1cc(Cl)[nH]nc1-c1ccccc1", 1.05),
    ("CNC(=O)Sc1ccc(OS(C)(=O)=O)cc1", 0.925),
    ("COCCCNc1nc(NC(C)C)nc(SC)n1", 0.989),
]

---

- Test system: Odoribacter splanchnicus
- assay notes: growth AUC relative to DMSO control (median of replicates) (fraction); higher = more growth (less inhibition), active = hit call of the paper
- test context: 20 µM; 24 h

# molecule, growth AUC
data = [
    ("Cc1nn(C)c(Oc2ccccc2)c1/C=N/OCc1ccc(C(=O)OC(C)(C)C)cc1", 1.01),
    ("Cc1nn(C)c(F)c1C(=O)Nc1ccccc1C(C)CC(C)C (stereo unspecified)", 0.899),
    ("CCNc1nc(NCC)nc(OC)n1", 1.01),
    ("ClC=C(c1ccc(Cl)cc1)c1ccc(Cl)cc1", 1.07),
    ("COC(=O)COc1ccc(Cl)cc1C", 1.01),
    ("CCCCCCCCOC(=O)COc1cc(Cl)c(Cl)cc1Cl", 1.08),
    ("CCc1cccc(C)c1N(COC(C)C)C(=O)CCl", 1.1),
    ("O=C(O)c1ccc(Cl)cc1Cl", 1.01),
    ("COc1nc(C)nc(NC(=O)NS(=O)(=O)c2ccccc2OCCCl)n1", 1),
    ("N#Cc1ccccc1NC(=O)c1snc(Cl)c1Cl", 1.01),
    ("CC(C)NS(=O)(=O)NC(=O)c1cc(-n2c(=O)cc(C(F)(F)F)[nH]c2=O)c(F)cc1Cl", 0.977),
]

---

- Tested on: Odoribacter splanchnicus
- assay notes: growth AUC relative to DMSO control (median of replicates) (fraction); higher = more growth (less inhibition), active = hit call of the paper
- test context: 20 µM; 24 h
Mark not fulfilled for growth AUC values under 1, and fulfilled for everything at or above.

# compound, target or test system, class assignment
data = [
    ("O=C1NC(=O)c2ccccc21", "Odoribacter splanchnicus", "not fulfilled"),
    ("c1ccc(CNc2ncnc3nc[nH]c23)cc1", "Odoribacter splanchnicus", "fulfilled"),
    ("CCSC(=O)COc1ccc(Cl)cc1C", "Odoribacter splanchnicus", "not fulfilled"),
    ("CCCCCCCC/C=C\\CCCCCCCCCCCCC", "Odoribacter splanchnicus", "not fulfilled"),
    ("S=C([S-])NCCNC(=S)[S-].S=C([S-])NCCNC(=S)[S-].[Mn+2].[Zn+2]", "Odoribacter splanchnicus", "not fulfilled"),
    ("CCC(C)c1cc([N+](=O)[O-])cc([N+](=O)[O-])c1OC(=O)OC(C)C (stereo not given)", "Odoribacter splanchnicus", "fulfilled"),
    ("O=C(NC(=O)c1c(F)cccc1F)Nc1cc(C(F)(F)F)cc(C(F)(F)F)c1Cl", "Odoribacter splanchnicus", "not fulfilled"),
    ("COCCCNc1nc(NC(C)C)nc(SC)n1", "Odoribacter splanchnicus", "not fulfilled"),
    ("c1ccc2c(c1)-c1cccc3c1c-2cc1ccccc13", "Odoribacter splanchnicus", "fulfilled"),
    ("COc1cccc(N(C)C(=S)Oc2cccc(C(C)(C)C)c2)n1", "Odoribacter splanchnicus", "fulfilled"),
    ("COC1CCC2(CC1)NC(=O)C(O)(c1cc(C)ccc1C)C2=O (stereo not given)", "Odoribacter splanchnicus", "fulfilled"),
    ("CP(=O)(O)CCC(=O)O", "Odoribacter splanchnicus", "fulfilled"),
    ("CC(C)COC(=O)COc1cc(Cl)c(Cl)cc1Cl", "Odoribacter splanchnicus", "not fulfilled"),
]

---

Listed below: growth AUC values for each entry.
- System: Coprococcus comes
- assay notes: growth AUC relative to DMSO control (median of replicates) (fraction); higher = more growth (less inhibition), active = hit call of the paper
- test context: 20 µM; 24 h
result type: growth AUC

# compound, experimental value
measured = [
    ("COC(=O)C(C)Oc1ccc(Cl)cc1Cl (stereo unspecified)", 1.01),
    ("CC(C)c1cc(Oc2ccccc2)cc(C(C)C)c1NC(=S)NC(C)(C)C", 0.896),
    ("CCc1ccc(C(c2ccc(CC)cc2)C(Cl)Cl)cc1", 1.04),
    ("CCC([O-])=C1C(=O)CC(C(=O)[O-])CC1=O.[Ca+2] (stereo unspecified)", 0.957),
    ("O=C(O)COc1ccc(Cl)c2cccnc12", 0.997),
    ("COC(=O)c1c(Cl)c(Cl)c(C(=O)OC)c(Cl)c1Cl", 1.05),
]

---

- System: Odoribacter splanchnicus
- assay notes: growth AUC relative to DMSO control (median of replicates) (fraction); higher = more growth (less inhibition), active = hit call of the paper
- test context: 20 µM; 24 h
Listed below: growth AUC values for each entry.
result type: growth AUC

# molecule, result type, experimental value
measured = [
    ("CCNc1nc(NC(C)(C)C)nc(OC)n1", "growth AUC", 1.07),
    ("Clc1ccc(Sc2cc(Cl)c(Cl)cc2Cl)cc1", "growth AUC", 1.1),
    ("COC(=O)C(C)Oc1ccc(Oc2ccc(C(F)(F)F)cn2)cc1 (stereo unspecified)", "growth AUC", 1.02),
    ("COC(=O)Nc1ccc(Cl)c(Cl)c1", "growth AUC", 0.974),
    ("CCOC(=O)C1CC(=O)C(=C(O)C2CC2)C(=O)C1 (stereo unspecified)", "growth AUC", 0.976),
    ("CCc1cccc(CC)c1N(COC)C(=O)CS(=O)(=O)[O-].[Na+]", "growth AUC", 1.01),
    ("c1ccc2cc3c(ccc4ccccc43)cc2c1", "growth AUC", 0.992),
    ("CC(C)OC(=O)N[C@H](C(=O)N[C@H](C)c1nc2ccc(F)cc2s1)C(C)C", "growth AUC", 1.02),
    ("CCc1cccc(CC)c1N(COC)C(=O)C(=O)O", "growth AUC", 1.01),
    ("CN(C)C(=O)Nc1ccc(Oc2ccc(Cl)cc2)cc1", "growth AUC", 1.1),
    ("CCCCCCCC/C=C\\CCCCCCCCCCCC(=O)O", "growth AUC", 1),
    ("COC(=O)c1ccc(CNS(C)(=O)=O)cc1S(=O)(=O)NC(=O)Nc1nc(OC)cc(OC)n1", "growth AUC", 1.07),
    ("CCCCCCCCCC[N+](C)(C)Cc1ccccc1.[Cl-]", "growth AUC", 0.926),
    ("CCC([O-])=C1C(=O)CC(C(=O)[O-])CC1=O.[Ca+2] (stereo unspecified)", "growth AUC", 0.976),
    ("CCCN(CCOc1c(Cl)cc(Cl)cc1Cl)C(=O)NC=O", "growth AUC", 0.956),
    ("CCOC(=O)C(C)Oc1ccc(Oc2cnc3cc(Cl)ccc3n2)cc1 (stereo unspecified)", "growth AUC", 1.02),
    ("CCOC(=O)[C@@H](C)Oc1ccc(Oc2cnc3cc(Cl)ccc3n2)cc1", "growth AUC", 0.984),
    ("CCOC(=O)C1=NN(c2ccc(Cl)cc2Cl)C(C)(C(=O)OCC)C1 (stereo unspecified)", "growth AUC", 1.04),
    ("CC(C)c1cc(Oc2ccccc2)cc(C(C)C)c1NC(=S)NC(C)(C)C", "growth AUC", 0.989),
    ("CCc1nc2ncnn2c(N)c1CCCCCC(=O)O.Cl", "growth AUC", 1.04),
    ("CC(C)C(O)(c1ccc(OC(F)(F)F)cc1)c1cncnc1 (stereo unspecified)", "growth AUC", 0.938),
    ("CN(C)C(=O)Nc1cc(C(C)(C)C)on1", "growth AUC", 0.942),
    ("CC(C)CCCCCCc1ccc(O)cc1", "growth AUC", 1.05),
    ("Cc1ccc(C)c(O)c1", "growth AUC", 1),
    ("C=C1C[C@]23C[C@@]1(O)CC[C@H]2[C@@]12C=C[C@H](O)[C@@](C)(C(=O)O1)[C@H]2[C@@H]3C(=O)O", "growth AUC", 0.779),
    ("COc1c(Cl)ccc(Cl)c1C(=O)O", "growth AUC", 0.978),
    ("CC(C)NS(=O)(=O)NC(=O)c1cc(NC(N)=O)c(F)cc1Cl", "growth AUC", 0.976),
    ("Cc1cccc(C)c1O", "growth AUC", 0.943),
    ("c1ccc2[nH]c(-c3cscn3)nc2c1", "growth AUC", 0.962),
    ("CCOCN(C(=O)C(=O)O)c1c(C)cccc1CC", "growth AUC", 0.991),
    ("FC(F)(F)/N=C1\\SC(=Nc2ccccc2)N(c2ccccc2)\\C1=N\\C(F)(F)F", "growth AUC", 1.13),
    ("O=C(O)Cc1c[nH]c2ccccc12", "growth AUC", 0.983),
    ("COC(=O)c1ccccc1S(=O)(=O)NC(=O)Nc1nc(OC(F)F)cc(OC(F)F)n1", "growth AUC", 0.99),
    ("COC(=O)[C@@H](C)Oc1ccc(Oc2ncc(C(F)(F)F)cc2Cl)cc1", "growth AUC", 0.946),
    ("O=C(O)COc1ccc(Cl)cc1CO", "growth AUC", 0.96),
    ("COC(=O)CSc1cc(N=c2sc(=O)n3n2CCCC3)c(F)cc1Cl", "growth AUC", 1.01),
    ("CCc1cccc(C)c1NC(=O)C(=O)O", "growth AUC", 0.998),
    ("CCSC(=O)N(CC)CC", "growth AUC", 0.915),
    ("O.O.O=[N+]([O-])c1ccc([O-])cc1.[Na+]", "growth AUC", 0.85),
    ("O=C(O)C1(C(=O)Nc2ccc(Cl)cc2Cl)CC1", "growth AUC", 0.994),
    ("CC(C)(c1ccc(O)cc1)c1ccc(O)cc1", "growth AUC", 1.07),
    ("COc1cc(OC)nc(NC(=O)NS(=O)(=O)Nc2ccccc2C(=O)C2CC2)n1", "growth AUC", 0.963),
    ("CC(C)N(C)S(=O)(=O)NC(=O)c1cc(-n2c(=O)cc(C(F)(F)F)[nH]c2=O)c(F)cc1Cl", "growth AUC", 1.03),
    ("CCCCCCCCc1c(CC)nc2ncnn2c1N", "growth AUC", 0.989),
    ("O=C(O)Cc1cccc2ccccc12", "growth AUC", 0.953),
    ("CCOC(=O)Cn1c(=O)sc2cccc(Cl)c21", "growth AUC", 0.979),
]
